Target: human CRTH2 (Homo sapiens)
Sequence (Q9Y5Y4 1-395): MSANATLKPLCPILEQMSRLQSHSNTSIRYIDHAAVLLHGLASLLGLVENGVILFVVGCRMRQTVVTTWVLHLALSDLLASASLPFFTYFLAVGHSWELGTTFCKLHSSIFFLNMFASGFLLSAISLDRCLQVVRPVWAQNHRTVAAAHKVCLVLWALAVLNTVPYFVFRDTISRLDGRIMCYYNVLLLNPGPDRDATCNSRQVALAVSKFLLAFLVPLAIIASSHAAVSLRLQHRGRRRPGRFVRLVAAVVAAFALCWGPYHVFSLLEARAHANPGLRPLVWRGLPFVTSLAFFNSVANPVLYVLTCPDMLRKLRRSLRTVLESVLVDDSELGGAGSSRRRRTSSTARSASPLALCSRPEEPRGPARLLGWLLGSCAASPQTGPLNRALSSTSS
Test: Human CRTH2 Receptor Binding Assay (whole cell, [3H]ramatroban competition)
Conditions: CHO-K1 cells expressing human CRTH2 and G-alpha16; 20 nM [3H]ramatroban; 1 hour, room temperature
Description: A whole cell receptor binding assay using [^3H]ramatroban as the competing radioactive ligand was employed to evaluate the compound binding activity to human CRTH2. […] The binding reactions (0.2 mL) were performed in 96-well plates at room temperature in PBS containing 1.5×10^5 cells, 10 mM MgCl2, 0.06% BSA, 20 nM [^3H]ramatroban, and test compound at various concentrations. […] Specific binding data were obtained by subtracting the radioactivity of non-specific binding from each binding data. […]
Recorded pIC50 values for a group of compounds are listed next.
Scale: negative log10 of molar concentration, which is what pIC50 denotes.

Ask: Find the measured pIC50 of CN([C@@H]1CCCc2c1cnn2CC(=O)O)S(=O)(=O)c1ccc(Oc2ccc(Cl)cc2F)c(Cl)c1 [Example 9-11a] with human CRTH2 (Homo sapiens) as test system.
Reply: 8.14

Ask: Find the measured pIC50 of Cc1ccc(Oc2ccc(S(=O)(=O)N(C)[C@@H]3CCCc4c3cnn4CC(=O)O)cc2Cl)cc1 [Example 9-15a] with human CRTH2 (Homo sapiens) as test system.
Reply: 7.99

Ask: Find the measured pIC50 of N#Cc1ccc(Oc2ncc(S(=O)(=O)NC3CCCc4c3cnn4CC(=O)O)cc2Br)cc1 (stereo not shown) [Example 2-4a] with human CRTH2 (Homo sapiens) as test system.
Reply: 7.99

* * *

Target: UniProt Q9Y5Y4
Sequence (Q9Y5Y4 1-395): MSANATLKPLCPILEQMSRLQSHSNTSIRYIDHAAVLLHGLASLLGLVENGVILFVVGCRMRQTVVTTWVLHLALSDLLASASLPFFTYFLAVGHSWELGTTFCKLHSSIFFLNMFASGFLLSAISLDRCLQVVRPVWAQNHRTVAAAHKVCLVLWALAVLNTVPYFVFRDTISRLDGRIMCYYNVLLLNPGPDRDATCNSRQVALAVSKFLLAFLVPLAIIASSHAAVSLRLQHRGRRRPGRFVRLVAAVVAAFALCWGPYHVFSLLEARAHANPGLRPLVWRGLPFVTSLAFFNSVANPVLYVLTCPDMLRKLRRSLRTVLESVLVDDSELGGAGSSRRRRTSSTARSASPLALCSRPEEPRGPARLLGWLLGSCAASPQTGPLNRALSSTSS
Assay: Human CRTH2 Receptor Binding Assay (whole cell, [3H]ramatroban competition)
Settings: CHO-K1 cells expressing human CRTH2 and G-alpha16; 20 nM [3H]ramatroban; 1 hour, room temperature
property name: log10 IC50 (log10 of the value in nM)
In plain terms, each number is the log10 of measured IC50 in nM.

{"columns": ["molecule", "property name", "reported"],
 "data": [
  ["O=C(O)Cn1ncc2c1CCC[C@H]2NS(=O)(=O)c1ccc(-c2cccc(Cl)c2)cc1 [Example 10-13a]", "log10 IC50", 2.18],
  ["O=C(O)Cn1ncc2c1CCC[C@H]2NS(=O)(=O)c1cnc(Oc2ccccc2Cl)c(Br)c1", "log10 IC50", 0.92],
  ["CN([C@@H]1CCCc2c1cnn2CC(=O)O)S(=O)(=O)c1cnc(Oc2ccc(Cl)cc2)c(C2(C)CC2)c1", "log10 IC50", 1.16],
  ["Cc1ccc(Cl)c(Oc2ccc(S(=O)(=O)N(C)[C@@H]3CCCc4c3cnn4CC(=O)O)cc2Cl)c1 [Example 9-18a]", "log10 IC50", 1.13],
  ["O=C(O)Cn1ncc2c1CCCC2NS(=O)(=O)c1cc(-c2ccccc2)cc(C(F)(F)F)c1 (stereo not drawn) [Example 10-16a]", "log10 IC50", 1.82]
]}

Note: attention shifts to another entry.
Ask: Find the measured log10 IC50 of CS(=O)(=O)c1cccc(-c2ccc(S(=O)(=O)N[C@@H]3CCCc4c3cnn4CC(=O)O)cc2)c1 [Example 10-28a] with UniProt Q9Y5Y4 as test system.
Reply: 0.82
